B1: Serine/threonine-protein kinase A-Raf, residues 21 to 89; numbered along this chain, P10398 (parent)
chain: VKVYLPNKQRTVVTVRDGMSVYDSLDKALKVRGLNQDCCVVYRLIKGRKTVTAWDTAIAPLDGEELIVE

- Variants of: B1
- PROTOCOL_NOTES: abundance fitness (aPCA) (normalised: wild type 0, dead -1); higher = more abundant; growth selection in yeast, the domain comes from the species named
- CONDITION_DETAILS: Homo sapiens
# label = Criterion met if abundance fitness >= -0.2 else Criterion not met

item_sequence="VKVYLPNKQRTVVTVRDGMSVYDSLAKALKVRGLNQDCCVVYRLIKGRKTVTAWDTAIAPLDGEELIVE [D26A]" label_class="Criterion met"
item_sequence="VKVYLPNKQRTVVTVRDGASVYDSLDKALKVRGLNQDCCVVYRLIKGRKTVTAWDTAIAPLDGEELIVE [M19A]" label_class="Criterion met"

Challenge: Is abundance fitness at least -0.2? Consider VKVYLPNKQRTVVTVRDGMSVYDSLDKALKVRGLNQDCCVVYRLIKGRKTVTAWDTAIAPNDGEELIVE [L61N]
Response given: Criterion not met

Challenge: Next record, please: VKVYLPNKQRTVVTVRDGMSVYDSLDKALKVRGLVQDCCVVYRLIKGRKTVTAWDTAIAPLDGEELIVE [N35V]
Response given: Criterion met
